These data points were gathered from PubChem BioAssay (NCI).

# System: CAKI-1 renal
# assay name: NCI tumour cell line growth inhibition, 48 h
outcome measure: TGI (µM)

Nn1c(CCCCCCCCc2nnc(COc3ccc4ccccc4c3O)n2N)nnc1COc1ccc2ccccc2c1O    41.8
Nc1nc(N)c2cc(-c3ccccc3)cnc2n1    29.5
COc1cccc2c1CCc1cc3c(N)nc(N)nc3nc1-2    45.7
Cc1nc2sc(C(=O)Nc3cccc4ccccc34)c(N)c2cc1C(O)c1ccccc1 (stereo not given)    12

----------
Here, each record is paired with measured TGI data.
# System: SN12C renal
# assay name: NCI tumour cell line growth inhibition, 48 h
outcome measure: TGI (µM)

Nc1c2c(c(O)c3c1=C(CO)C=N3)=NCCS2    0.332
CC(=O)NC1=C(NC(C)(C)C)C(=O)c2ccccc2C1=O    34.8
CN(C)CCCNc1ccc2c(=O)n(CCN(C)C)c(=O)n3c4ccccc4c(=O)c1c23    0.941

----------
# Tested on: BT-549 breast
# assay name: NCI tumour cell line growth inhibition, 48 h; in the data active = GI50 below about 0.43 µM; inactive = the rest
Outcome codes: 1 (yes) for active, 0 (no) for inactive

Cc1cc(O)cc2c1[C@]1(C)CCC3C(C)(C)CCC[C@]3(C)[C@H]1C2 (some centres not stated)    0 (no)
COc1ccc(/C(COc2ccc3c(=O)c(-c4ccccc4)coc3c2)=N\O)cc1    0 (no)
CNC(=O)c1ccc(N2C(=S)N(c3ccc(C#N)c(C(F)(F)F)c3)C(=O)C2(C)C)cc1F    0 (no)
COc1cc(-c2ccc(-c3ccc(C(=N)N)nc3)s2)cc(OC)c1OC    0 (no)
C=C1C(=O)O[C@H]2[C@H]1CC/C(COC(=O)C(=O)c1cn(C)c3ccc(Cl)cc13)=C\CC[C@@]1(C)O[C@@H]21    1 (yes)
Cc1nc2sc(C(=O)Nc3cccc4ccccc34)c(N)c2cc1C(O)c1ccccc1 (configuration not stated)    1 (yes)
CC(C)C[C@H](NC(=O)Cn1ccc(NCc2ccccc2)cc1=O)B(O)O    0 (no)
CNC(=S)NC(=O)c1c(Cl)n(C(=O)OC(C)(C)C)c2ccccc12    0 (no)
CCCN(CCC)c1ccc(/C=C/c2ccc3cc(OCC)ccc3n2)cc1    0 (no)
C=C1C(=O)O[C@H]2[C@H]1CC/C(COC(=O)c1cc3ccccc3o1)=C\CC[C@@]1(C)O[C@@H]21    0 (no)
COc1cc(N2CCC(N3CCN(C)CC3)CC2)ccc1Nc1ncnc(Nc2ccccc2S(=O)(=O)C(C)C)n1    0 (no)
C=C(NC(=O)C(=C)NC(=O)c1csc(C2=NC3c4csc(n4)C4NC(=O)c5csc(n5)C(C(C)(O)C(C)O)NC(=O)C5CSC(=N5)C(=CC)NC(=O)C(C(C)O)NC(=O)c5csc(n5)C3(CC2)NC(=O)C(C)NC(=O)C(=C)NC(=O)C(C)NC(=O)C(C(C)CC)NC2C=Cc3c(C(C)O)cc(nc3C2O)C(=O)OC4C)n1)C(N)=O (configuration not stated)    0 (no)
Cc1cc(-c2nc3sccn3c2/C=N/N=C(N)N)c(C)s1    0 (no)
C[C@@H](O)[C@H](NC(=O)N[C@@H](CC(N)=O)c1nc([C@@H](N)CO)no1)C(=O)O    0 (no)
COc1ccc(NC([Se])=NC23CC4CC(CC(C4)C2)C3)cc1    0 (no)
N#Cc1ccc2c(c1)C(=O)c1c-2n(CCCCl)c(=O)c2cc([N+](=O)[O-])ccc12    0 (no)
Cc1ccc(Cc2cnc(NC(=O)/C=C/c3cccc(C)c3)s2)cc1    1 (yes)
